The measured values listed here are drawn from patent US20190241669A1.

Biological target: Human BCMA (human) (UniProt Q02223)
Test: SPR, IgG on chip, huBCMA analyte
Assay readout: pKd
Numbers only, as −log10 of the molar value.

Binder	Assay readout	Measured
A02_Rd4_0.6nM_C13 (antibody, V domains shown, IgG) VH: EVQLLESGGGLVQPGGSLRLSCAASGFTFSSYAMNWVRQAPGKGLEWVSAISDSGGYRYYADSVKGRFTISRDNSKNTLYLQMNSLRAEDTAVYYCARYWPMSLWGQGTLVTVSS VL: EIVLTQSPGTLSLSPGERATLSCRASQSVSSSYWAWYQQKPGQAPRLLMYDASIRATGIPDRFSGSGSGTDFTLTISRLEPEDFAVYYCQQYESWPLTFGQGTKVEIK	pKd	10.18
COMBO_Rd4_0.6nM_C04 (antibody, V domains shown, IgG) VH: EVQLLESGGGLVQPGGSLRLSCAASGFTFSSYPMSWVRQAPGKGLEWVSAHIGSGGSTYYADSVKGRFTISRDNSKNTLYLQMNSLRAEDTAVYYCARYWPMDSWGQGTLVTVSS VL: EIVLTQSPGTLSLSPGERATLSCRASQSVSSTYLAWYQQKPGQAPRLLMYDASIRATGIPDRFSGSGSGTDFTLTISRLEPEDFAVYYCQQYQSWPLTFGQGTKVEIK	pKd	10.82

Consider now this further binder.
IN: pKd lookup needed for A02_Rd4_6nM_C03 (antibody, V domains shown, IgG) VH: EVQLLESGGGLVQPGGSLRLSCAASGFTFSSYAMNWVRQAPGKGLEWVSAISDSGGSTYYADSVKGRFTISRDNSKNTLYLQMNSLRAEDTAVYYCARYWPMDIWGQGTLVTVSS VL: EIVLTQSPGTLSLSPGERATLSCRASQSVSNLYLAWYQQKPGQAPRLLMYDASIRATGIPDRFSGSGSGTDFTLTISRLEPEDFAVYYCQQYQGWPLTFGQGTKVEIK , thanks.
OUT: 10.12
